Assay: in vitro
Assay type: cell-based
Conditions: human; cell viability after 24 hours incubation, at least two independent experiments; read-out: Cytotoxicity IC50 in HeLa cells
Description: The cytotoxicity of phosphonamidate monoesters was evaluated against HeLa cells (ATCC-CCL-2), which were maintained in Dulbecco’s modified Eagle medium (Thermo Fisher Scientific) supplemented with 10% (v/v) fetal bovine serum (Thermo Fisher Scientific), penicillin (100 units/mL), and streptomycin (100 μg/mL, both from Sigma) at 37 °C, 5% CO2. […] Figure S1. Cytotoxicity dose-response curves of phosphonamidate monoesters as determined in HeLa cells. […]
IC50 at 24 h: recorded values

COP(=O)(CCSC(C)=O)N(C)Cc1ccccn1 (racemic)	> 500 µM

Please give the measured IC50 at 24 h for this compound: COP(=O)(CCSC(C)=O)NCc1ccccn1 (racemic) > 500 µM

###

target: VIM-2 (Escherichia coli); assay: MBL inhibition assay, purified VIM-2, nitrocefin hydrolysis at 482 nm; format: biochemical; conditions: nitrocefin reporter substrate, 100 pM enzyme, 2.5% DMSO, highest inhibitor concentration 800 μM; N.I. and P. not defined
Quantity Name: IC50 against purified VIM-2

// solved cases for IC50 against purified VIM-2 follow
CCO[P@@](=O)(N[C@@H](C(=O)OC)c1ccccc1)[C@@H](CSC(C)=O)Cc1ccccc1 (mixture of isomers)	P.
CCOP(=O)(NCc1ccccn1)C(CSC(C)=O)Cc1ccccc1 (racemic)	N.I.
CCO[P@](=O)([C@@H](CSC(C)=O)Cc1ccccc1)N(C)Cc1ccccn1 (racemic)	P.
COP(=O)(CCS)NCc1ccccn1 (stereo not shown)	N.I.
COP(=O)(CCSC(C)=O)N(Cc1ccccn1)Cc1ccccn1 (racemic)	N.I.

Hello, I am looking for reported IC50 against purified VIM-2 with VIM-2 (Escherichia coli) for CCO[P@](=O)([C@@H](CSC(C)=O)Cc1ccccc1)N(Cc1ccccn1)Cc1ccccn1 (racemic) . Could you help? P.

Try this compound too: COP(=O)(CCSC(C)=O)NCc1ccccn1 (racemic) N.I.

###

molecular target: VIM-2 (Escherichia coli)
Quantity Name: IC50 (µM)
Give a bare numeral; the unit µM is implied.

Which IC50 is reported with VIM-2 (Escherichia coli) for this entry: COC(=O)[C@H](NP(=O)(CCSC(C)=O)OC)c1ccccc1 (mixture of isomers) ? 500

###

target: GIM-1 (Pseudomonas aeruginosa, UniProt Q704V1); assay: MBL inhibition assay, purified GIM-1, nitrocefin hydrolysis at 482 nm; assay type: biochemical; conditions: nitrocefin reporter substrate, 1 nM enzyme, 2.5% DMSO, highest inhibitor concentration 800 μM; N.I. and P. not defined
Sequence (Q704V1 entry or part of it): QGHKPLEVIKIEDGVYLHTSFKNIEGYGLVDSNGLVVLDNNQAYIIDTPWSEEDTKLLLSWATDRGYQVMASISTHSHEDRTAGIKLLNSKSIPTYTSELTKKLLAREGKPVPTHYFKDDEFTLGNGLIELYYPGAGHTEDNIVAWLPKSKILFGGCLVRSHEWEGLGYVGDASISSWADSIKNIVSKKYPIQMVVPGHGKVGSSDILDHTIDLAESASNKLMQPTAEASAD
Quantity Name: IC50 against purified GIM-1

CCO[P@](=O)([C@@H](CSC(C)=O)Cc1ccccc1)N(Cc1ccccn1)Cc1ccccn1 (racemic)	P.
COP(=O)(CCS)NCc1ccccn1 (stereo not drawn)	N.I.
CCO[P@@](=O)(N[C@@H](C(=O)OC)c1ccccc1)[C@@H](CSC(C)=O)Cc1ccccc1 (mixture of isomers)	P.
COP(=O)(CCSC(C)=O)N(Cc1ccccn1)Cc1ccccn1 (racemic)	N.I.
COC(=O)[C@H](NP(=O)(CCSC(C)=O)OC)c1ccccc1 (mixture of isomers)	N.I.

If you can, please state the reported IC50 against purified GIM-1 value of CCO[P@](=O)([C@@H](CSC(C)=O)Cc1ccccc1)N(C)Cc1ccccn1 (racemic) . P.

###

target: UniProt:C7C422; assay: MBL inhibition assay, purified NDM-1, imipenem hydrolysis at 300 nm; assay type: biochemical; conditions: imipenem reporter substrate, 10 nM enzyme, 2.5% DMSO, highest inhibitor concentration 800 μM; N.I. and P. not defined
Sequence (C7C422 29-270 limits assumed): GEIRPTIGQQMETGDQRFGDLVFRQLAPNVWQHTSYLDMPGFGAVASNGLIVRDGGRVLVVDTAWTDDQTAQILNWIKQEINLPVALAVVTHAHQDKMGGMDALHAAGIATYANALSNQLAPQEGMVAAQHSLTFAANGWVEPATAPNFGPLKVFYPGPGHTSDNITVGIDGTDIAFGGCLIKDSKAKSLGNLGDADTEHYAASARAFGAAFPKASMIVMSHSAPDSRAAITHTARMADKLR
Quantity Name: IC50 against purified NDM-1

CCO[P@](=O)([C@@H](CSC(C)=O)Cc1ccccc1)N(C)Cc1ccccn1 (racemic)	P.
COP(=O)(CCS)NCc1ccccn1 (stereo not shown)	N.I.
COP(=O)(CCSC(C)=O)NCc1ccccn1 (racemic)	N.I.
CCOP(=O)(NCc1ccccn1)C(CSC(C)=O)Cc1ccccc1 (racemic)	N.I.

Form field: reported IC50 against purified NDM-1 of CCO[P@@](=O)(N[C@@H](C(=O)OC)c1ccccc1)[C@@H](CSC(C)=O)Cc1ccccc1 (mixture of isomers) P.

Entry to check: COC(=O)[C@H](NP(=O)(CCSC(C)=O)OC)c1ccccc1 (mixture of isomers) N.I

Would you kindly repeat that for CCO[P@](=O)([C@@H](CSC(C)=O)Cc1ccccc1)N(Cc1ccccn1)Cc1ccccn1 (racemic) ? P.

###

target: GIM-1 (Pseudomonas aeruginosa); assay: MBL inhibition assay, purified GIM-1, nitrocefin hydrolysis at 482 nm
Quantity Name: IC50 (µM)
// units = µM; emit number, no label

COP(=O)(CCSC(C)=O)NCc1ccccn1 (racemic) [1a]	86

Next compound, IC50 to be filled in.
Could you share which IC50 value was measured for COP(=O)(CCSC(C)=O)N(C)Cc1ccccn1 (racemic) [1b] ? 109
